Assay: cytotoxicity in HPDE-C7 cells, cell-based, fluorescence, HTS (AID 430);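 note: cells exposed to compound for 48 hours before viability readout; 0% = vehicle and 100% = reference cytotoxic drug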
Settings: HPDE-C7 pancreatic duct cells viability, at 10 µM, active compounds read high
Among all 63,000 compounds or so, about 1,100 (1.7%) were called active. For the sample, actives were picked, then their nearest neighbours and some compounds at random. Results with a measured potency or affinity are listed apart.
Could you please report measured cytotoxicity for the items listed next?
Give bare numbers, in %.

Completed entries (count: 5):
# compound, unit, cytotoxicity
data = [
    ("COc1ccc(Nc2oc(-c3ccccc3Cl)nc2C#N)cc1", "%", 57.9),
    ("COCCNc1oc(-c2ccccc2Cl)nc1C#N", "%", -6),
    ("Cn1c(=O)oc2cc(S(=O)(=O)N3CCCC(C(=O)NCc4cccs4)C3)ccc21 (stereo unspecified)", "%", -3.9),
    ("CCOC(=O)CC(=O)CSc1nc2sc(C)cc2c(=O)n1Cc1ccco1", "%", -13.3),
    ("OCCN1CCN(C(c2cccs2)c2ccc3cccnc3c2O)CC1 (stereo unspecified)", "%", 79.3),
]

Alright, here's another compound for you.
# input May I ask what cytotoxicity has been recorded for Cc1nc2sc(C(c3ccccc3)N3CCN(CCO)CC3)c(O)n2n1 (stereo unspecified) ?
# output -1.3

###

Experiment: cytotoxicity in HPDE-C7 cells, cell-based, fluorescence, HTS (AID 430)
Settings: HPDE-C7 pancreatic duct cells viability, at 10 µM
Out of some 63,000 compounds screened, about 1,100 (1.7%) were called active. Cut-off read from the data, not from the text of the source: active = cytotoxicity above about 50%; inactive = the rest. The list comes from a sample in which actives are over-represented; it also holds close analogues and randomly drawn compounds. Measured potencies and affinities stand elsewhere.
Select the matching outcome among active, inactive

// below: answered compounds
# compound, label-value
data = [
    ("O=S(=O)(c1cccc(Cl)c1Cl)N1CCCCC1", "inactive"),
    ("Cc1csc(NC(=O)CSc2nc(C)nc3c2c(=O)n(C)c(=O)n3C)n1", "inactive"),
    ("N#CC1=C(N)C(C#N)(C#N)[C@H](c2ccoc2)[C@H]2CN(Cc3ccccc3)CC=C12", "active"),
]

# input I'd appreciate the recorded outcome for CC(=O)N1CC=C2C(C#N)=C(N)C(C#N)(C#N)[C@H](c3ccoc3)[C@H]2C1 from this test.
# output inactive

# input Next compound: CCOc1ccc(S(=O)(=O)N2Cc3ccccc3CC2C(=O)NCCCn2ccnc2)cc1 (stereo not given)
# output inactive

###

Assay: cytotoxicity in HPDE-C7 cells, cell-based, fluorescence, HTS (AID 430)
Conditions: HPDE-C7 pancreatic duct cells viability, at 10 µM
The campaign covered roughly 63,000 compounds. About 1,100 (1.7%) were called active. Rule as the data show it: active = cytotoxicity above about 50%; inactive = the rest. The sample as a whole holds a higher share of actives than the screen did. Potency and affinity values are given separately.
Select the matching outcome among 1 (active), -1 (inactive)

# molecule, label-value
data = [
    ("O=C(Oc1ccc2c(c1)OCO2)c1cccs1", -1),
]

# input I'd appreciate the recorded outcome for CCOC(=O)c1c(C)[nH]c(C(=O)OCC(=O)N2CCc3ccccc32)c1C from this test.
# output -1

# input Next molecule: O=C(Nc1ccc(N2CCOCC2)cc1)C1CCCN(S(=O)(=O)c2ccccc2)C1 (stereo not given)
# output -1

# input Next molecule: CCOC(=O)c1[nH]c(C)c(C(=O)Nc2ccc(C)c(C)c2)c1C
# output -1

# input Next molecule: CCOC(=O)c1[nH]c(C)c(C(=O)Nc2cc(Cl)ccc2C)c1C
# output 1

# input Next molecule: CCOC(=O)c1[nH]c(C)c(C(=O)Nc2ccc(C)cc2C)c1C
# output 1

# input Next molecule: CCOC(=O)c1[nH]c(C)c(C(=O)Nc2cc(OC)ccc2OC)c1C
# output -1

# input Next molecule: CCOC(=O)c1[nH]c(C)c(C(=O)N2CCc3ccccc32)c1C
# output 1

# input Next molecule: Oc1ccc(-c2nc(-c3ccc(O)c(O)c3)cs2)cc1
# output 1

# input Next molecule: CN(c1ccc(O)cc1)c1nc(-c2ccccc2)cs1
# output -1

# input Next molecule: CCOC(=O)c1[nH]c(C)c(C(=O)Nc2ccc(F)cc2)c1C
# output -1

# input Next molecule: COc1cc(-c2csc(C)n2)ccc1O
# output -1

# input Next molecule: CC[C@]1(O)C[C@@H]2CN(CCc3c([nH]c4ccccc34)[C@@](C(=O)OC)(c3cc4c(cc3OC)N(C)[C@H]3[C@@](O)(C(=O)OC)[C@H](OC(C)=O)[C@]5(CC)C=CCN6CC[C@]43[C@@H]65)C2)C1
# output 1

# input Next molecule: Cc1nn(CCC(=O)O)c2nc(-c3cccnc3)cc(C(F)(F)F)c12
# output -1

# input Next molecule: Cc1c(N=Cc2cc3c(cc2Cl)OCO3)c(=O)n(-c2ccccc2)n1C
# output -1

# input Next molecule: CCOc1nc(-c2ccccc2)ccc1-c1noc(-c2ccncc2)n1
# output -1

# input Next molecule: CC[C@]1(O)CC2CN(CCc3c([nH]c4ccccc34)[C@@](C(=O)OC)(c3cc4c(cc3OC)N(C=O)[C@H]3[C@@](O)(C(=O)OC)[C@H](OC(C)=O)[C@]5(CC)C=CCN6CC[C@]43[C@@H]65)C2)C1 (stereo not given in full)
# output 1

# input Next molecule: Cc1ccc(/C(O)=C2/C(=O)C(=O)N(Cc3cccnc3)C2c2ccccn2)cc1 (stereo not given)
# output -1

# input Next molecule: CCOC(=O)c1[nH]c(C)c(C(=O)Nc2ccc(Cl)cc2)c1C
# output -1

# input Next molecule: CC(=O)c1c(C)[nH]c(C(=O)N2CCc3ccccc32)c1C
# output -1

###

Experiment: cytotoxicity in HPDE-C7 cells, cell-based, fluorescence, HTS (AID 430);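 note: cells exposed to compound for 48 hours before viability readout; 0% = vehicle and 100% = reference cytotoxic drug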
Details: HPDE-C7 pancreatic duct cells viability, at 10 µM
Out of some 63,000 compounds screened, about 1,100 (1.7%) were called active. No stated cut-off is given here; in the data, active means cytotoxicity above about 50%; inactive means the rest. The sample as a whole holds a higher share of actives than the screen did. Measured potencies and affinities stand elsewhere.
Select the matching outcome among true for active, false for inactive

// below: answered compounds
# compound, label-value
records = [
    ("CCOC(=O)c1ccc(NC(=O)CSc2nc3c(c(=O)n2CC)SC(C)C3)cc1 (centres undefined)", "true"),
    ("COc1ccccc1-c1cc(C(=O)Nc2cc(C)on2)no1", "false"),
]

# input I'd appreciate the recorded outcome for O=C(O)C1C2C=CC(C2)C1C(=O)Nc1ccc(C(=O)N2CCCCC2)c(Cl)c1 (centres undefined) from this test.
# output false

# input Next compound: Cc1ccc(SCCC(=O)NCC2CCCO2)cc1 (centres undefined)
# output false

# input Next compound: CC(C)(C)N1C(=O)Cc2c1nc(N)c1c(N)nc(N3CCCCC3CO)c(C#N)c21 (centres undefined)
# output true

# input Next compound: COc1ccc2nc(NC(=O)Cc3ccc(OC)c(S(=O)(=O)N4CCOCC4)c3)sc2c1
# output false

# input Next compound: COc1ccc(C(=O)N2CCN(C(=O)c3cc(OC)c(OC)c(OC)c3)CC2)cc1
# output false

# input Next compound: COc1ccccc1-c1cc(C(=O)Nc2cccnc2)no1
# output true

###

Could you please report measured cytotoxicity for the items listed next?
Test: cytotoxicity in HPDE-C7 cells, cell-based, fluorescence, HTS (AID 430);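 note: cells exposed to compound for 48 hours before viability readout; 0% = vehicle and 100% = reference cytotoxic drug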
Settings: HPDE-C7 pancreatic duct cells viability, at 10 µM, active compounds read high
Out of some 63,000 compounds screened, about 1,100 (1.7%) were called active. For the sample, actives were picked, then their nearest neighbours and some compounds at random. Entries with a potency or affinity are not part of this list.
Numbers only, in %.

# compound, unit, cytotoxicity
data = [
    ("CCn1c(COc2ccc3c(c2)OCO3)nnc1SCC(=O)c1ccccc1", "%", -1.4),
    ("CCOC(=O)c1c(C)oc2c1c(C=NC1CCS(=O)(=O)C1)c(O)c1ccccc12 (stereo not given)", "%", 28.9),
    ("COc1ccc(S(=O)(=O)N2CC(C)N(S(=O)(=O)c3ccc(OC)cc3)CC2C)cc1 (stereo not given)", "%", -4.1),
    ("O=S(=O)(c1cccc2nsnc12)N1CCN(c2ncccn2)CC1", "%", -8.5),
]

# input May I ask what cytotoxicity has been recorded for CN1CCN(C(c2cccnc2)c2ccc3cccnc3c2O)CC1 (stereo not given) ?
# output -9.1

###

Test: cytotoxicity in HPDE-C7 cells, cell-based, fluorescence, HTS (AID 430);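 note: cells exposed to compound for 48 hours before viability readout; 0% = vehicle and 100% = reference cytotoxic drug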
Conditions: HPDE-C7 pancreatic duct cells viability, at 10 µM, active compounds read high
The campaign covered roughly 63,000 compounds. About 1,100 (1.7%) were called active. The entries come from a sample that favours actives as a whole. Results with a measured potency or affinity are listed apart.
measure-name: cytotoxicity (%)
Answers are plain numbers, in %.

Completed entries (count: 5):
# compound-string, unit, cytotoxicity
measured = [
    ("CCC(=O)Nc1ccc(S(=O)(=O)Nc2cccc(C)c2)cc1OC", "%", 3.2),
    ("Cc1ccc(Cl)cc1N1CCN(C(=O)C2CCN(c3nnc(-n4cccc4)s3)CC2)CC1", "%", 43.7),
    ("CCNc1nc(N2CCCCC2)nc(-n2nnc(C(=O)OCC)c2C)n1", "%", -22.1),
    ("CC1(C)Cc2nc3oc4c(=S)nc[nH]c4c3cc2CO1", "%", -4.7),
    ("Cc1ccc(C)c(N2CCN(C(=O)C3CCN(c4nc(C)cc(C)n4)CC3)CC2)c1", "%", 11.3),
]

// each listed compound needs a value for cytotoxicity
1. CCc1nnc(NC(=O)CSc2nc3c(cc2C#N)CCCC3)s1
2. CCOC(=O)N1CCN(C(=O)c2cc3sccc3n2C)CC1
3. CCOC(=O)c1ccc(NC(=O)c2cccc(S(=O)(=O)N3CCOCC3)c2)cc1
4. CCOC(=O)c1c(C)[nH]c(C(=O)Cn2c(=O)c3c(ncn3CC)n(Cc3ccccc3)c2=O)c1C

# output
1. -1.1
2. -9.1
3. 20.1
4. 4.9

# input May I ask what cytotoxicity has been recorded for Cc1cc(C)nc(N2CCC(C(=O)N3CCN(c4cc(Cl)ccc4C)CC3)CC2)n1 ?
# output 59.5
